Data provenance is ChEMBL document CHEMBL5726443.

Give measured pIC50 for each item. Keep answers brief.
Molecular target: Sodium channel protein type 9 subunit alpha (Homo sapiens, UniProt Q15858)
Sequence (Q15858 whole entry): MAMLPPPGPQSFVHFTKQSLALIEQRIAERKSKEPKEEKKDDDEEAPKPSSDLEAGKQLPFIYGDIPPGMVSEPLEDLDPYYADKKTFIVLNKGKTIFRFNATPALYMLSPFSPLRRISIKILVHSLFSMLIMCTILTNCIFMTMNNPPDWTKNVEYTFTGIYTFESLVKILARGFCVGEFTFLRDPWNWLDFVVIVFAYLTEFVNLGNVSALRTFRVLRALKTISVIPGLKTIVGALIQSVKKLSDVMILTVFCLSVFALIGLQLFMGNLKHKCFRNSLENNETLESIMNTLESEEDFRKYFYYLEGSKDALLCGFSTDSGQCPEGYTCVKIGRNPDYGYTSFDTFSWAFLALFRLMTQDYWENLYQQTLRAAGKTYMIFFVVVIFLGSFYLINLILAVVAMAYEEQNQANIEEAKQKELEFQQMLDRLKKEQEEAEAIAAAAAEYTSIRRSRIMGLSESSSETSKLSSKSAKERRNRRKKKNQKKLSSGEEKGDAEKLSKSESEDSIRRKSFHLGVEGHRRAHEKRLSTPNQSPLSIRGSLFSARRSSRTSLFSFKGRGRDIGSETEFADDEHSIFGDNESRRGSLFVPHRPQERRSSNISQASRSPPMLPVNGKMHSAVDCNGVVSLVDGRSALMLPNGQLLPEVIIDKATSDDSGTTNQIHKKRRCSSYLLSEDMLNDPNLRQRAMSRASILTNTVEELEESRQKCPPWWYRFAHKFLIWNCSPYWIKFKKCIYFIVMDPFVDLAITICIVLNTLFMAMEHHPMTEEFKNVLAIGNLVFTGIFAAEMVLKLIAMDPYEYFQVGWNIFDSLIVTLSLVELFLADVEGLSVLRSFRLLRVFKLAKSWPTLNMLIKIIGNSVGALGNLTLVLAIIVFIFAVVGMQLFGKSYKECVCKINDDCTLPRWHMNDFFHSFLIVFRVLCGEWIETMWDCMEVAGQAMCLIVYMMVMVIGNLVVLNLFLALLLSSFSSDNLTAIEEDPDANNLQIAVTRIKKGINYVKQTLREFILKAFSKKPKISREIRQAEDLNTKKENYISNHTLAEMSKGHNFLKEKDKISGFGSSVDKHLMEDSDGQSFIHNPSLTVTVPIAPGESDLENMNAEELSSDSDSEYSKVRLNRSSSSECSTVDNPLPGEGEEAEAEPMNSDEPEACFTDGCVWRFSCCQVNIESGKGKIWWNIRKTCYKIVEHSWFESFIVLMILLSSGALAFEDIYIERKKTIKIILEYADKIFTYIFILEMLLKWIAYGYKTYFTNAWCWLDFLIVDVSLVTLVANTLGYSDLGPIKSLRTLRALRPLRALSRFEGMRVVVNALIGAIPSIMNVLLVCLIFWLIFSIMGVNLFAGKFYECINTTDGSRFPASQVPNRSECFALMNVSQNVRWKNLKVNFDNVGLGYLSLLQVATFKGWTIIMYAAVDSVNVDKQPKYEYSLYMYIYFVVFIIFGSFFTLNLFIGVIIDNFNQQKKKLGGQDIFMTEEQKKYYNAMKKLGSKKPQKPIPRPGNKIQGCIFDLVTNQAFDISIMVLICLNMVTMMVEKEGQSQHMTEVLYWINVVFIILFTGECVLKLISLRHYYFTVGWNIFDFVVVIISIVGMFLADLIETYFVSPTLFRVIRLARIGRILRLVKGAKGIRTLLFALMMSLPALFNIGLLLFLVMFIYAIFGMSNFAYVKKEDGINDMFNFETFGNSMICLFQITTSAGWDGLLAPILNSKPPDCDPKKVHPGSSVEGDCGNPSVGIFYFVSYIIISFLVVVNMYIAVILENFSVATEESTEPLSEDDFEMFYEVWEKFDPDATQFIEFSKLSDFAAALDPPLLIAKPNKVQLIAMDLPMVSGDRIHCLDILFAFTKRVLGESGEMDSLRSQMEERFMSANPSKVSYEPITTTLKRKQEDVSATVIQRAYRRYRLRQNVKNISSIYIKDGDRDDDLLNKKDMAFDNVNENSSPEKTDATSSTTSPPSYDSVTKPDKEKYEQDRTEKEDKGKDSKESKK
Experiment: Compound effects were measured on a partially inactivated state of the sodium channel. Cells were clamped to a holding potential yielding 20 to 50% inactivation. To elicit sodium current, channels were activated by pulsing to ⿿10 mV for 20 msec. This voltage protocol was repeated at a rate of 0.1 Hz throughout the experiment.
Numbers only, as −log10 of the molar value.

Example molecules with recorded pIC50:
* COc1cc(-c2cccc(C(F)(F)F)c2)c(C)cc1-c1nccc2cc(S(=O)(=O)Nc3ccon3)ccc12 | 7.22
* COc1cc(-c2ccc(Cl)c(F)c2)c(C#N)cc1-c1nccc2cc(S(=O)(=O)Nc3nncs3)ccc12 | 7.73
* COc1cc(-c2ccc(F)c(Cl)c2)c(C#N)cc1-c1nccc2cc(S(=O)(=O)Nc3nncs3)ccc12 | 8.04
* COc1cc(-c2cccc(Cl)c2)c(F)cc1-c1ncnc2cc(S(=O)(=O)Nc3ncc(F)cn3)ccc12 | 6.97

Read the next record carefully.
Request: Data request, read-out pIC50, for `COc1cc(-c2ccc(F)c(C)n2)c(C)cc1-c1ncnc2cc(S(=O)(=O)Nc3ccon3)ccc12`
Result: 6.35
